Please respond with reported pIC50 for every item in the list.
- System Tested: human GST-DYRK1A (Homo sapiens, UniProt Q13627)
pIC50: −log10 of the molar value.

# example entries with known answers
COCCNc1nc(Nc2ccc(P3(=O)CCN(C4COC4)CC3)cc2OC)nc2[nH]cc(C#N)c12 = 6.52 to 7.00
N#Cc1c[nH]c2nc(Nc3ccc(C(=O)N4CC(CO)(CO)C4)c4c3OCCO4)nc(NCC3CCCC3)c12 = 6.00 to 6.52
COc1cc(P2(=O)CCN(C3COC3)CC2)ccc1Nc1nc(NC2CCCC2)c2cc[nH]c2n1 = 6.00 to 6.52
COCCNc1nc(Nc2ccc(S(=O)(=O)N3CCC(N4CCOCC4)CC3)cc2OC)nc2[nH]cc(C(N)=O)c12 = 6.00 to 6.52
N#Cc1c[nH]c2nc(Nc3ccc(C(=O)N4CCC(N5CCOCC5)CC4)c4c3OCC4)nc(NC3CCCC3)c12 = > 7.00

Please give pIC50 for each item listed below.
1. CCCNc1nc(Nc2ccc(P(C)(C)=O)cc2OC)nc2[nH]cc(C(F)(F)F)c12
2. C=CCNc1nc(Nc2ccc(S(=O)(=O)N3CCC(N4CCOCC4)CC3)cc2OC)nc2[nH]cc(C#N)c12
3. O=C(c1ccc(Nc2nc(NC3CC3)c3c(C(F)(F)F)c[nH]c3n2)c2c1OCCO2)N1CCC(N2CCOCC2)CC1
4. COc1cc(S(C)(=O)=O)ccc1Nc1nc(NCC(C)C)c2c(C(F)(F)F)c[nH]c2n1
5. CC(C)CNc1nc(Nc2ccc(C(=O)N3CCC(N4CCOCC4)CC3)c3c2OCCO3)nc2[nH]cc(C#N)c12
6. CCNc1nc(Nc2ccc(P3(=O)CCN(CC)CC3)cc2OC)nc2[nH]cc(C#N)c12
7. COc1cc(P2(=O)CCN(C3COC3)CC2)ccc1Nc1nc(NCC2CC2)c2c(C#N)c[nH]c2n1
8. CCCCNc1nc(Nc2ccc(C(=O)N3CCOCC3)c3c2OCC3)nc2[nH]cc(C(F)(F)F)c12

Return:
1: 6.52 to 7.00; 2: 6.00 to 6.52; 3: 6.52 to 7.00; 4: 6.00 to 6.52; 5: 6.00 to 6.52; 6: 6.52 to 7.00; 7: 6.52 to 7.00; 8: 6.00 to 6.52

Please give pIC50 for each item listed below.
1. O=C(c1ccc(Nc2nc(NC3CCCCC3)c3cc[nH]c3n2)c2c1OCCO2)N1CCOCC1 [Example 49, 2,2,2-trifluoroacetate]
2. COc1cc(P(C)(C)=O)ccc1Nc1nc(NC2CCCCC2)c2c(C(F)(F)F)c[nH]c2n1
3. COc1cc(P(C)(C)=O)ccc1Nc1nc(N[C@@H]2CCOC2)c2c(C(F)(F)F)c[nH]c2n1

Return:
["6.00 to 6.52", "6.52 to 7.00", "> 7.00"]

* * *

- System Tested: human GST-CLK1 (Homo sapiens, UniProt P49759)
- Sequence (P49759 129-484 limits assumed): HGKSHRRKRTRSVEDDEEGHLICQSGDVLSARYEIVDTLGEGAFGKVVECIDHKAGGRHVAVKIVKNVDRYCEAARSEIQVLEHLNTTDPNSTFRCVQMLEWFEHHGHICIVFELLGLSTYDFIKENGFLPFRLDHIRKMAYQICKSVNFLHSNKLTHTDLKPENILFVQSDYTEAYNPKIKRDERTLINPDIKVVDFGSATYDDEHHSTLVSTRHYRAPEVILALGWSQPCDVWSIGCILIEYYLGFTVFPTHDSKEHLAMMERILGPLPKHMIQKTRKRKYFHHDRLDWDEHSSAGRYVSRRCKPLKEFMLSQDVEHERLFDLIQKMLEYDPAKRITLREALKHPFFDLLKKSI
pIC50: −log10 of the molar value.
Reported Endpoint: pIC50

CC(C)CNc1nc(Nc2ccc(C(=O)N3CCC(N4CCOCC4)CC3)c3c2OCCO3)nc2[nH]cc(C#N)c12 [Example 139] = > 7.00
COc1cc(P2(=O)CCN(C3CC3)CC2)ccc1Nc1nc(N[C@H]2CCOC2)c2c(C(F)(F)F)c[nH]c2n1 [Example 417] = > 7.00
CCNc1nc(Nc2ccc(C(=O)N3CCC(N4C[C@@H]5C[C@H]4CO5)CC3)c3c2OCC3)nc2[nH]cc(C(F)(F)F)c12 [Example 468] = > 7.00
COc1cc(S(=O)(=O)N2CCC(N3CCOCC3)CC2)ccc1Nc1nc(NCCS(C)(=O)=O)c2c(C#N)c[nH]c2n1 [Example 96] = > 7.00
O=C(c1ccc(Nc2nc(NC3CCC3)c3c(C(F)(F)F)c[nH]c3n2)c2c1OCCO2)N1CCOCC1 [Example 185] = 6.52 to 7.00
CNc1nc(Nc2ccc(C(=O)N3CCOCC3)c3c2OCCO3)nc2[nH]cc(C(F)(F)F)c12 [Example 155] = > 7.00
CCCCNc1nc(Nc2ccc(C(=O)N3CCOCC3)c3c2OCCO3)nc2[nH]cc(C(F)(F)F)c12 [Example 208] = 6.00 to 6.52
O=C(c1ccc(Nc2nc(NC3CC3)c3c(C(F)(F)F)c[nH]c3n2)c2c1CCO2)N1CCC(N2CCOCC2)CC1 [Example 434] = > 7.00

Please give pIC50 for each item listed below.
1. CCCNc1nc(Nc2ccc(C(=O)N3CCC(N4CCOCC4)CC3)c3c2OCC3)nc2[nH]cc(C#N)c12 [Example 349]
2. COc1cc(P2(=O)CCN(C3COC3)CC2)ccc1Nc1nc(N[C@@H]2CCOC2)c2c(C#N)c[nH]c2n1 [Example 299]

Return:
["> 7.00", "6.52 to 7.00"]
